- Target Of Assay: SMARCA4-HiBiT HeLa cells (protein which is expressed from the SMARCA4 gene) (Homo sapiens, UniProt P51532)
- Construct: protein which is expressed from the SMARCA2 and SMARCA4 genes; host or cells: HeLa (SMARCA4-HiBiT engineered line)
- Sequence (P51532 whole entry): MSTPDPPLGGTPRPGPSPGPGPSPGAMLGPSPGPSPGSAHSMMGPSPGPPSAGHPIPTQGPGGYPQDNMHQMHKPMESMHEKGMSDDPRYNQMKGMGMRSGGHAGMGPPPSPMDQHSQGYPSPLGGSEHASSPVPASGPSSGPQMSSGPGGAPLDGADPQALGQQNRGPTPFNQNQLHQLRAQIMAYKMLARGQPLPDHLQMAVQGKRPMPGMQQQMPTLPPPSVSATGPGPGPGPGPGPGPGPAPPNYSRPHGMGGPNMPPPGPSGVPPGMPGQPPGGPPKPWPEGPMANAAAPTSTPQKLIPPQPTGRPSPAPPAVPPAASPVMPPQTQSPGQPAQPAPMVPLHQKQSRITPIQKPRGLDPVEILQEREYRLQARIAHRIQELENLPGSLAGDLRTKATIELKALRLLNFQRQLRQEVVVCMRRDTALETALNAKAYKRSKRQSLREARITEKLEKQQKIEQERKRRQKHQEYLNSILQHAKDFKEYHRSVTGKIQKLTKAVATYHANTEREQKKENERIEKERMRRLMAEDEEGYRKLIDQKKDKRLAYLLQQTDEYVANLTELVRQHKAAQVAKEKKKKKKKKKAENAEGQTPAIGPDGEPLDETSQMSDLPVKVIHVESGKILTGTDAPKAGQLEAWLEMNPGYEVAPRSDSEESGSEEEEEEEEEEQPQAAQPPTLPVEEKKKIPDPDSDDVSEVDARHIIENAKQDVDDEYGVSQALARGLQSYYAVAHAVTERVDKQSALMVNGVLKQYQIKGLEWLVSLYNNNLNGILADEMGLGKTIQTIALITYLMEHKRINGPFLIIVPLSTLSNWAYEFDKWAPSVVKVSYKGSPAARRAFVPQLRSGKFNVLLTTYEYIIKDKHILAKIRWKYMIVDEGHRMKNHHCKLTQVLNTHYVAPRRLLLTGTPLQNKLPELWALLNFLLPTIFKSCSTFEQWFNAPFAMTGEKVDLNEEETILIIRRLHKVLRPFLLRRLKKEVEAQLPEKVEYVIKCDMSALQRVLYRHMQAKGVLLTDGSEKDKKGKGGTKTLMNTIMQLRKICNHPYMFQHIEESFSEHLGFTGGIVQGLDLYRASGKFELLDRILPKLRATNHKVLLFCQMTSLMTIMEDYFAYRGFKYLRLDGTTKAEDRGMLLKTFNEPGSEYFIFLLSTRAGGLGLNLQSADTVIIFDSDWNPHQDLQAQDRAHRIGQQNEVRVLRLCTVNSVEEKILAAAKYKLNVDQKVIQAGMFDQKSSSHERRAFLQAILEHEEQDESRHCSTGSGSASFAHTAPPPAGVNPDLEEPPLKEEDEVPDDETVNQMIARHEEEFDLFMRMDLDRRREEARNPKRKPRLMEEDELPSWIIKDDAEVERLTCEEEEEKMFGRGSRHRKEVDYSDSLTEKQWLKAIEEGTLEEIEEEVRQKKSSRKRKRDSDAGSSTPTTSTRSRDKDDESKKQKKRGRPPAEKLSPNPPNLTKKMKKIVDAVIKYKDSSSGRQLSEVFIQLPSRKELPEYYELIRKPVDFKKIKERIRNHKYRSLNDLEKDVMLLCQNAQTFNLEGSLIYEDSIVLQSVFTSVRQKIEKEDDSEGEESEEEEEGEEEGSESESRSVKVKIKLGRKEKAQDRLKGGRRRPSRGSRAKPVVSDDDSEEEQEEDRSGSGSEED
- Test Description: SMARCA4 degradation assay (HiBiT-fusion HeLa cell line, 24 h, luminescence)
- Format: cell-based
Measured Endpoint: DC50

[[record]]
compound_string = "C[C@@H]1CCN(c2cc(-c3ccccc3O)nnc2N)CCN1c1ccnc(C#CCN2CC(F)(F)C2)c1"
result = "< 50 nM"

[[record]]
compound_string = "CN(CC#Cc1nccc(N2CCCN(c3cc(-c4ccccc4O)nnc3N)CC2)n1)c1nc2ccccc2o1"
result = "< 50 nM"

[[record]]
compound_string = "C[C@@H]1CCN(c2cc(-c3ccccc3O)nnc2N)CCN1c1ccnc(C#CCN2C3COCC2C3)n1"
result = "< 50 nM"


Request: I have this molecule here, `Cn1nc(C(=O)NCC#Cc2nccc(N3CCN(c4cc(-c5ccccc5O)nnc4N)CC3)n2)cc1C1CC1` , and I need its recorded DC50.
Result: < 50 nM

Request: I have this molecule here, `Nc1nnc(-c2ccccc2O)cc1N1CCCN(c2ccnc(C#CCNCCF)n2)CC1` , and I need its recorded DC50.
Result: 500 to 5000 nM

Request: I have this molecule here, `C[C@@H]1CCC(=O)N1CC#Cc1ncc(F)c(N2CCN(c3cc(-c4ccccc4O)nnc3N)CC[C@H]2C)n1` , and I need its recorded DC50.
Result: 50 to 500 nM

Request: I have this molecule here, `C[C@@H]1CCN(c2cc(-c3ccccc3O)nnc2N)CCN1c1ccnc(C#CCN2CCC(F)(F)C2)n1` , and I need its recorded DC50.
Result: 50 to 500 nM
